- procedureDetails: Quantitative High-Throughput drug screen in 47 multiple myeloma cell lines against the NCATS MIPE library collection: KMM1_JCRB cell viability assay (AID 1918960); further: nearly all actives have a fitted effect of over 30% in size
- assaySetup: KMM1 myeloma viability, CellTiter-Glo ATP luminescence, 48 h; series mostly up to 45.8 µM
Results filed as inconclusive are left out. Active and inactive are the calls of the source. The call rests on the fitted dose curve; in most records, active means well fitted cell-killing curve with a large enough effect; inconclusive means small, poorly fitted or top-dose-only effect, or effect the other way; inactive means no such curve, though single readings can be large or run the other way.
Choose one outcome from this list and give only that: Y for active, N for inactive

These recorded examples may help you get a feel for the data.
O=C(c1ccc(F)cc1)C1CCN(CCn2c(=O)[nH]c3ccccc3c2=O)CC1 : N
O=C1c2c(O)ccc(O)c2C(=O)c2c(NCCNCCO)ccc(NCCNCCO)c21 : Y
O=c1[nH]cc(F)c(=O)[nH]1 : Y
NS(=O)(=O)c1cc2c(cc1Cl)NCNS2(=O)=O : N
COc1ccccc1OCC(O)CN1CCN(CC(=O)Nc2c(C)cccc2C)CC1 (stereo unspecified) : N

Field: next compound
Exam item: # outcome recorded in this test, key = CS(=O)(=O)CCNCc1ccc(-c2ccc3ncnc(Nc4ccc(OCc5cccc(F)c5)c(Cl)c4)c3c2)o1
Marked response: Y

###

- procedureDetails: qHTS of pediatric cancer cell lines to identify multiple opportunities for drug repurposing: Confirmatory screen for OHS-50 cells (AID 1347128);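 further: compound exposure lasted 48 h at 37 degrees C; nearly all actives have a fitted effect of over 55% in size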
- assaySetup: OHS-50 osteosarcoma cells viability; series mostly up to 45.9 µM
Records with an inconclusive call do not appear. The source made the active and inactive calls. The call rests on the fitted dose curve; in most records, active means well fitted cell-killing curve with a large enough effect; inconclusive means small, poorly fitted or top-dose-only effect, or effect the other way; inactive means no such curve, though single readings can be large or run the other way.
Choose one outcome from this list and give only that: True (active), False (inactive)

Clc1ccc(C(c2ccccc2Cl)C(Cl)Cl)cc1 (centres undefined) : False

Exam item: # outcome recorded in this test, key = CC(C)Cc1ccc(C(C)C(=O)O)cc1 (centres undefined)
Marked response: False

Exam item: # outcome recorded in this test, key = O=C(Nc1ccc([N+](=O)[O-])cc1Cl)c1cc(Cl)ccc1O
Marked response: True

###

- procedureDetails: Quantitative High-Throughput drug screen in 47 multiple myeloma cell lines against the NCATS MIPE library collection: AMO1_DSMZ cell viability assay (AID 1918927; further: nearly all actives have a fitted effect of over 30% in size)
- assaySetup: AMO1 myeloma cells viability, CellTiter-Glo ATP luminescence, 48 h; series mostly up to 45.8 µM
Results filed as inconclusive are left out. Activity calls are given as the source filed them. The call rests on the fitted dose curve; in most records, active means well fitted cell-killing curve with a large enough effect; inconclusive means small, poorly fitted or top-dose-only effect, or effect the other way; inactive means no such curve, though single readings can be large or run the other way.
Choose one outcome from this list and give only that: true (active), false (inactive)

NC(=O)OCC(COC(N)=O)c1ccccc1 : false

Exam item: # outcome recorded in this test, key = CCc1cccc2c3c([nH]c12)C(CC)(CC(=O)O)OCC3 (stereo unspecified)
Marked response: false

Exam item: # outcome recorded in this test, key = CCOC(=O)Nc1ccc(NCc2ccc(F)cc2)nc1N
Marked response: true

###

- procedureDetails: qHTS of pediatric cancer cell lines to identify multiple opportunities for drug repurposing: Primary screen for OHS-50 cells (AID 1347103); further: nearly all actives have a fitted effect of over 40% in size
- assaySetup: OHS-50 osteosarcoma viability, CellTiter-Glo luminescence, 48 h; series mostly up to 57.3 µM
Inconclusive results are not listed. Activity calls are given as the source filed them. The call rests on the fitted dose curve; in most records, active means well fitted cell-killing curve with a large enough effect; inconclusive means small, poorly fitted or top-dose-only effect; inactive means no such curve, though single readings can be large or run the other way.
Choose one outcome from this list and give only that: true (1) (active), false (0) (inactive)

These recorded examples may help you get a feel for the data.
CN(C)CCC=C1c2ccccc2C=Cc2ccccc21 : true (1)
CC1(C)O[C@H]2CC(=O)OC[C@]23[C@H]2CC[C@@]4(C)[C@H](c5ccoc5)OC(=O)[C@H]5O[C@]54[C@]2(C)C(=O)C[C@@H]13 : false (0)
CN(Cc1cnc2nc(N)nc(N)c2n1)c1ccc(C(=O)N[C@@H](CCC(=O)O)C(=O)O)cc1 : true (1)
COc1ccc2c(c1)c(CC(=O)O)c(C)n2C(=O)c1ccc(Cl)cc1 : false (0)
C[C@@H]1CC(=O)NN=C1c1ccc(NN=C(C#N)C#N)cc1 : true (1)

Exam item: # outcome recorded in this test, key = Cc1ccccc1N1C(=O)c2cc(S(N)(=O)=O)c(Cl)cc2NC1C (stereo not given)
Marked response: false (0)

Exam item: # outcome recorded in this test, key = CCOC(=O)Nc1ccc(NCc2ccc(F)cc2)nc1N
Marked response: false (0)

Exam item: # outcome recorded in this test, key = O=C1N(c2ccccc2)c2ccccc2C1(Cc1ccncc1)Cc1ccncc1
Marked response: false (0)

Exam item: # outcome recorded in this test, key = CN(CCOc1ccc(NS(C)(=O)=O)cc1)CCc1ccc(NS(C)(=O)=O)cc1
Marked response: false (0)

Exam item: # outcome recorded in this test, key = CC(C(=O)O)c1cccc(C(=O)c2ccccc2)c1 (stereo not given)
Marked response: false (0)

###

- System: CAOV3
- procedureDetails: Primary qHTS to identify gynecologic anti-cancer compounds using libraries of approved drugs and bioactive compounds (AID 1345084); further: on the % scale 0 is the no-effect control and ±100 the full control effect; nearly all actives have a fitted effect of over 55% in size
- assaySetup: Gynecologic cancer cell panel viability, ATPlite luminescence, 48 h; series mostly up to 57.5 µM
- Text: National Center for Advancing Translational Sciences [NCATS] Assay Overview: Chemotherapeutic drug responses vary from cancer to cancer and from patient to patient. […] ATPlite is a luminescence based assay reliant on the conversion of a luciferase substrate to light in the presence of ATP. As a cytotoxic compound will suppress growth and decrease the number of cells, the concentration of ATP will decrease, and less light signal will be detected in the well. […]
Results filed as inconclusive are left out. Activity calls are given as the source filed them. Calls follow the shape of the dose curve; as a rule, active = well fitted cell-killing curve with a large enough effect; inconclusive = small, poorly fitted or top-dose-only effect, or effect the other way; inactive = flat fitted curve, though single readings scatter.
quantityMeasured: outcome

Examples with their reported outcome follow.
C[C@H]1c2cccc(O)c2C(O)=C2C(=O)[C@]3(O)C(O)=C(C(N)=O)C(=O)[C@@H](N(C)C)[C@@H]3[C@@H](O)[C@@H]21 : inactive
COc1ccc(C2CNC(=O)C2)cc1OC1CCCC1 (stereo not drawn) : inactive
Cn1ccc2cc3c(cc21)CCN3C(=O)Nc1cccnc1 : inactive
Cc1cnc(C(=O)NCCc2ccc(S(=O)(=O)NC(=O)NC3CCCCC3)cc2)cn1 : inactive
CN1C(C(=O)Nc2ccccn2)=C(O)c2ccccc2S1(=O)=O : inactive
O=c1c(O)c(-c2ccc(O)c(O)c2)oc2cc(O)cc(O)c12 : inactive

# map each compound to its outcome
1. CN1CCC(=C2c3ccccc3CC(=O)c3sccc32)CC1
2. CC(C)(C)C(=O)Oc1ccc(S(=O)(=O)Nc2ccccc2C(=O)NCC(=O)O)cc1

Marked response:
["inactive", "inactive"]

###

- procedureDetails: Drug repurposing screens with cells derived from glioblastoma tumor samples (AID 1345199); further: on the % scale 0 is the no-effect control and ±100 the full control effect; nearly all actives have a fitted effect of over 40% in size
- assaySetup: GBM patient neurospheres viability, ATP luminescence, 48 h; at 20 µM (top of the series); tumour line C
- Experimental: CD133+ cells were isolated from GBM patient biopsies and cultured as neurospheres. Neurospheres from four patients were used to screen the NCATS pharmaceutical collection (NPC) library of approved drugs and bioactive compounds. […] The neurospheres were incubated with drugs for 48 hours in 1536-well format, then assayed with an ATP content cell viability assay. […]
Results filed as inconclusive are left out. The source made the active and inactive calls. The call rests on the fitted dose curve; in most records, active means well fitted inhibition curve with a large enough effect; inconclusive means small, poorly fitted or top-dose-only effect; inactive means flat fitted curve, though single readings scatter.
Assignment: determine reported activity, negative = cell killing for the given molecules.

Examples with their reported activity, negative = cell killing follow.
O=C1c2c(O)ccc(O)c2C(=O)c2c(NCCNCCO)ccc(NCCNCCO)c21 : -23.1% (inactive)
COc1ccc(C2CNC(=O)C2)cc1OC1CCCC1 (centres undefined) : -0.6% (inactive)
COc1nc(C)nc(Cl)c1NC1=NCCN1 : -9.78% (inactive)
CN(C)C(=N)N=C(N)N : -29.3% (inactive)

# map each molecule to its activity, negative = cell killing
1. CN1C(C(=O)Nc2ccccn2)=C(O)c2ccccc2S1(=O)=O
2. CS(=O)(=O)Nc1ccc([N+](=O)[O-])cc1Oc1ccccc1

Marked response:
1. -3.14% (inactive)
2. 19.5% (inactive)

# map each molecule to its activity, negative = cell killing
1. NCCCCCC(=O)O
2. Nc1nc2c(ncn2COC(CO)CO)c(=O)[nH]1
3. Cc1cc(C(C)(C)C)cc(C)c1CC1=NCCN1

Marked response:
1. 16.3% (inactive)
2. -13.4% (inactive)
3. -2.93% (inactive)

###

- measurementTarget: Glucocorticoid receptor (Homo sapiens) (UniProt P04150)
- Sequence (P04150 whole entry, looked up): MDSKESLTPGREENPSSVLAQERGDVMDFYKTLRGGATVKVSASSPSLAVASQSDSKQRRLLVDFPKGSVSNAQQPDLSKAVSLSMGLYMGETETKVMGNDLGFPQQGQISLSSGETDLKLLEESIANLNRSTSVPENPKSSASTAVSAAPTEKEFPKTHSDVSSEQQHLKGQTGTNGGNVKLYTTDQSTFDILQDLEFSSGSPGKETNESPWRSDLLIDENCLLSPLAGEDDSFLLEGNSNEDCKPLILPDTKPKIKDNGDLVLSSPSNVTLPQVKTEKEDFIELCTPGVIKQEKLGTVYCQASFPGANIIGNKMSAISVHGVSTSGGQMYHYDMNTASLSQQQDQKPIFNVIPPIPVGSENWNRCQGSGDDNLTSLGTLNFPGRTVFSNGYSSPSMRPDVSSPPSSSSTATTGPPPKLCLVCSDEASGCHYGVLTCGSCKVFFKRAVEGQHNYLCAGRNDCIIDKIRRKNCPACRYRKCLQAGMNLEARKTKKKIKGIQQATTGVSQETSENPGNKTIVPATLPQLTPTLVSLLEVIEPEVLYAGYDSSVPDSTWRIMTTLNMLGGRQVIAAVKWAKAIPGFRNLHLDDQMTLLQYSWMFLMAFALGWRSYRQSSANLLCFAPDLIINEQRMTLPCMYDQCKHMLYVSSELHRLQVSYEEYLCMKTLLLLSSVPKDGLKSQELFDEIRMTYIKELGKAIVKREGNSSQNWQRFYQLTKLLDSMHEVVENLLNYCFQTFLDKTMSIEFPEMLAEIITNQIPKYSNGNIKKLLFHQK
- procedureDetails: qHTS assay for small molecule antagonists of glucocorticoid receptor signaling (AID 588533);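 further: cells stimulated with 2 nM dexamethasone as agonist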
- assaySetup: HeLa MMTV-bla, GRE beta-lactamase ratio, antagonist mode, 18 h; series mostly up to 76.8 µM
Inconclusive results are not listed. Active and inactive are the calls of the source. The call rests on the fitted dose curve; in most records, active means well fitted inhibition curve with a large enough effect in the signal ratio, with a control signal flat (not every such curve was filed as active); inconclusive means small, poorly fitted or top-dose-only effect, or effect the other way, or a change in a side signal; inactive means flat fitted curve, though single readings scatter; the % refers to the signal ratio.
Choose one outcome from this list and give only that: active, inactive

These recorded examples may help you get a feel for the data.
CN(C)CCOC(c1ccccc1)c1ccccc1 : inactive
NCCS(=O)(=O)O : inactive
O=C(c1ccc(OCCN2CCCCC2)cc1)c1c(-c2ccc(O)cc2)sc2cc(O)ccc12 : active
CC(C)NCC(O)c1ccc(O)c(O)c1 (stereo not drawn) : inactive
CC(COc1ccccc1)N(CCCl)Cc1ccccc1 (stereo not drawn) : inactive

Exam item: # outcome recorded in this test, key = CC(C)Cc1ccc(C(C)C(=O)O)cc1 (stereo not drawn)
Marked response: inactive

Exam item: # outcome recorded in this test, key = NS(=O)(=O)c1cc2c(cc1Cl)NCNS2(=O)=O
Marked response: inactive

Exam item: # outcome recorded in this test, key = COc1ccc2[nH]cc(CCNC(C)=O)c2c1
Marked response: inactive

###

- procedureDetails: qHTS profiling for inhibitors of Plasmodium falciparum (3D7) proliferation (AID 743322);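 further: infected erythrocytes exposed to compound for 72 h before lysis; 100% = DMSO vehicle wells and 0% = 0.29 µM artemisinin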
- assaySetup: P. falciparum 3D7 proliferation, at 28.7 µM (top of the series)
Assignment: determine reported remaining parasite growth % (stronger effect = lower value) for the given compounds.
Numbers only, in %.

CC[C@@]1(O)C(=O)OCc2c1cc1n(c2=O)Cc2cc3c(CN(C)C)c(O)ccc3nc2-1 : 11.5
CN(C)C(=N)N=C(N)N : 104
C[C@H]1c2cccc(O)c2C(O)=C2C(=O)[C@]3(O)C(O)=C(C(N)=O)C(=O)[C@@H](N(C)C)[C@@H]3[C@@H](O)[C@@H]21 : 16.9

Would you kindly look at the next entry?
Exam item: Consider the compound Cc1ccc(-c2cc(C(F)(F)F)nn2-c2ccc(S(N)(=O)=O)cc2)cc1 and give its measured remaining parasite growth % (stronger effect = lower value).
Marked response: 17.6
